Target: c-Src SH2;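 also: peptide library displayed on the E. coli surface as eCPX fusions, selected cells deep-sequenced, score is each peptide's frequency after selection divided by its frequency in the input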
Experiment: SH2 binding enrichment of the phosphorylated peptide, bacterial display (enrichment ratio); higher = better substrate or ligand; peptides without Tyr show the background
Outcome measure: SH2 binding enrichment
One number for each entry.

Recorded SH2 binding enrichment, per entry:
>>> numeric_value("VSRGRYRPQEC [B4GALT4_Y113]")
0.43
>>> numeric_value("RTLTHYKSAVK [ASNS_Y555]")
0.545
>>> numeric_value("TSPKSCPSQKH [CAP2_Y316_Y316C]")
0.759

Batch: SH2 binding enrichment for all items listed.
1. FKDYFYCWNTF [AICDA_Y146]
2. VDTLWYKFLKR [EPM2A_Y86_F84L]

[0.474, 0.426]

Batch: SH2 binding enrichment for all items listed.
1. LHQSTYQRYDV [SLC7A14_Y693]
2. WHHTFYNELCV [ACTC1_Y93_R97C]
3. ANSPVYVPTTR [GATA6_Y188_S184N]

[1.16, 1.2, 0.506]

Batch: SH2 binding enrichment for all items listed.
1. SVVVPYEPPEL [TP53_Y220_V225L]
2. SFGESYDNSKS [MAN1B1_Y60_N59S]

[0.683, 0.437]
